run-description: solvent given as SMILES
applied-conditions: in CC#N
# note: exactly 400 nm is not below, so it is Not fulfilled; use Fulfilled for absorption maximum strictly under it

input: Is absorption maximum strictly under 400 nm for the entry "Fc1ccc(-c2nc3n(c2-c2ccncc2)CCS3)cc1" ?
output: Fulfilled

input: Would you mind doing "c1ccc2nc3cccc(-c4ccc(-n5c6ccccc6c6ccccc65)cc4)c3cc2c1" as well?
output: Fulfilled

input: Quick one: "COc1ccc(-n2nc(C#N)c(N3CCOCC3)n2)cc1"
output: Fulfilled

input: Consider next the molecule "COc1ccc(-c2nc3c(c4c2-c2ccc(C#N)cc2CC4)-c2ccc(C#N)cc2CC3)cc1" in the same way.
output: Fulfilled

input: Would you mind doing "CCCCCC(=O)c1c2c(c(C(=O)CCCCC)c3c1OC1(CCCC1)O3)OC1(CCCC1)O2" as well?
output: Not fulfilled

input: Try this molecule next: "CN(C)C1=Nc2cccc3cccc1c23"
output: Not fulfilled

input: Would you kindly repeat that for "CCCCCCCCC1(CCCCCCCC)c2cc(C#Cc3ccc(N(c4ccccc4)c4ccccc4)cc3)ccc2-c2ccc(C=O)cc21" ?
output: Fulfilled

input: # iterate: "CN(C)c1ccc(-c2nc(C#N)c(C#N)n2C)cc1"
output: Fulfilled
